Reference for the values: patent US12540137B2

// reported minimal effective concentration per item
- System: Human peripheral blood mononuclear cells (PBMC)
- assay comment: Cytokine induction in human cells (PBMC)
- Assay type: cell-based
- settings: human PBMC, 21-24 hours culture, ELISA; lowest concentration giving cytokine level at least 2× negative control; read-out: MEC to Induce Cytokine IFN-alpha
endpoint label: minimal effective concentration (µM)

* CCOC[C@@H](n1cnc2c(N)nc3ccccc3c21)C(C)(C)O [Example 5] | 0.12
* CCOC[C@@H](n1cnc2c(N)nc3ccccc3c21)C(O)(CC)CC [Example 12] | 0.04
* CCOC[C@H](C(C)C)n1c(C)nc2c(N)nc3ccccc3c21 [Example 3] | 0.37
